- METHOD_NOTES: Disposition (half-life) of mitiglinide
- STUDY_CONDITIONS: human, in vivo, oral; single dose of 5 mg and more
TEST_READOUT: half-life

Query: Value lookup for half-life; key = O=C(O)[C@H](CC(=O)N1C[C@H]2CCCC[C@H]2C1)Cc1ccccc1 [mitiglinide]
Result: ~1.5 h
